- Protocol details: Caco-2 Bi-directional Permeability
- Format: in vitro ADME
- Protocol conditions: human, Caco-2; Papp BL to AP / Papp AP to BL; iminopyrimidinone analog
Metric name: efflux ratio at 2 h
Give a plain numeric answer without units written out.

*Q* Determine its reported efflux ratio at 2 h: CN1C(=N)N[C@](C)(c2cc(NC(=O)c3ccc(F)cn3)ccc2F)CC1=O [drawing 739, reference compound]
*A* 6.1

---

- Protocol details: Caco-2 Bi-directional Permeability
- Assay type: in vitro ADME
- Protocol conditions: human, Caco-2, pH 7.4; apical to basolateral, 2-hr incubation; read-out: Caco-2 AP → BL (nm/s) (Iminothiadiazine Dioxide)
Metric name: Papp A→B at 2 h (×10⁻⁶ cm/s)

As a guide, the following entries are already answered.
CN1C(=N)N[C@](C)(c2cc(NC(=O)c3ccc(F)cn3)ccc2F)CS1(=O)=O	12.8
CC#Cc1cncc(-c2cc(Cl)c([C@]3(C)CS(=O)(=O)N(C)C(=N)N3)s2)c1	27.8
Cc1ccc(C(=O)Nc2ccc(F)c([C@]3(C)CS(=O)(=O)N(C)C(=N)N3)c2)nc1	15.1

[I] COc1cnc(C(=O)Nc2ccc(F)c([C@]3(C)CS(=O)(=O)N(C)C(=N)N3)c2)cn1 [Example 40ai]
[II] CN1C(=N)N[C@](C)(c2cc(NC(=O)c3ccc(C(F)(F)F)cn3)ccc2F)CS1(=O)=O
*Q* Please indicate which has the smaller reported Papp A→B at 2 h: I , or II . Mark your selection by writing its label.
*A* II

[1] Cc1cnc(C(=O)Nc2ccc(F)c([C@]3(C)CS(=O)(=O)N(C)C(=N)N3)c2)cn1
[2] COc1cnc(C(=O)Nc2cc(F)c(F)c([C@]3(C)CS(=O)(=O)N(C)C(=N)N3)c2)cn1 [Example 40di]
*Q* Could you point out whether the larger Papp A→B at 2 h belongs to 1 or to 2 ? Mark your selection by writing its label.
*A* 2
(2: 13.6 ×10⁻⁶ cm/s, 1: 5.4 ×10⁻⁶ cm/s)

[1] CN1C(=N)N[C@](C)(c2cc(NC(=O)c3ccc(Cl)cn3)ccc2F)CS1(=O)=O
[2] CN1C(=N)N[C@](C)(c2cc(-c3cccc(C#N)c3)cs2)CS1(=O)=O
*Q* Could you point out whether the larger Papp A→B at 2 h belongs to 1 or to 2 ? Mark your selection by writing its label.
*A* 2
(2: 22.6 ×10⁻⁶ cm/s, 1: 11.8 ×10⁻⁶ cm/s)
